Tested on: 941728-121-R-J1-PDC complex spheroid viability;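 further: spheroids exposed to compounds for 7 days before readout; 100% = DMSO vehicle control viability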
Assay: Anticancer human tumor 941728-121-R-J1-PDC patient-derived lung adenocarcinoma cell line growth inhibition [RAS]
Settings: second compound 0.000949 µM; first compound 1 µM; active compounds read low
outcomeMeasure: viability, T/C (%)

# molecule, readingUnit, valueObserved
measured = [
    ("C=CC(=O)Nc1cc(Nc2nccc(-c3cn(C)c4ccccc34)n2)c(OC)cc1N(C)CCN(C)C + CCn1c(-c2cc(N3CCN(C)CC3)cnc2C(C)OC)c2c3cc(ccc31)-c1csc(n1)CC(NC(=O)C1CC1C)C(=O)N1CCCC(N1)C(=O)OCC(C)(C)C2", "%", 14),
    ("C=CC(=O)Nc1cc(Nc2nccc(-c3cn(C)c4ccccc34)n2)c(OC)cc1N(C)CCN(C)C + CCn1c(-c2cccnc2C(C)OC)c2c3cc(ccc31)N1CCOC(CC(NC(=O)C(C(C)C)N(C)C(=O)C3(F)CCN(C(=O)C#CC(C)(C)N(C)C)CC3)C(=O)N3CCCC(N3)C(=O)OCC(C)(C)C2)C1", "%", 12.8),
    ("NC1c2ccccc2OC12CCN(c1cnc3c(N4CCCc5ncccc54)n[nH]c3n1)CC2 (configuration not stated) + CCn1c(-c2cccnc2C(C)OC)c2c3cc(ccc31)N1CCOC(CC(NC(=O)C(C(C)C)N(C)C(=O)C3(F)CCN(C(=O)C#CC(C)(C)N(C)C)CC3)C(=O)N3CCCC(N3)C(=O)OCC(C)(C)C2)C1", "%", 17.6),
    ("CCN1CCN(Cc2ccc(Nc3ncc(F)c(-c4cc(F)c5nc(C)n(C(C)C)c5c4)n3)nc2)CC1 + CCn1c(-c2cc(N3CCN(C)CC3)cnc2C(C)OC)c2c3cc(ccc31)-c1csc(n1)CC(NC(=O)C1CC1C)C(=O)N1CCCC(N1)C(=O)OCC(C)(C)C2", "%", 16.6),
    ("CC(=O)OC12COC1CC(O)C1(C)C(=O)C(O)C3=C(C)C(OC(=O)C(O)C(NC(=O)OC(C)(C)C)c4ccccc4)CC(O)(C(OC(=O)c4ccccc4)C21)C3(C)C (configuration not stated) + CCn1c(-c2cccnc2C(C)OC)c2c3cc(ccc31)N1CCOC(CC(NC(=O)C(C(C)C)N(C)C(=O)C3(F)CCN(C(=O)C#CC(C)(C)N(C)C)CC3)C(=O)N3CCCC(N3)C(=O)OCC(C)(C)C2)C1", "%", 15.6),
    ("NC1c2ccccc2OC12CCN(c1cnc3c(N4CCCc5ncccc54)n[nH]c3n1)CC2 (configuration not stated) + CCn1c(-c2cc(N3CCN(C)CC3)cnc2C(C)OC)c2c3cc(ccc31)-c1csc(n1)CC(NC(=O)C1CC1C)C(=O)N1CCCC(N1)C(=O)OCC(C)(C)C2", "%", 16.5),
    ("CC1(O)CCCC1n1c(=O)c(C(F)F)cc2cnc(NC3CCN(S(C)(=O)=O)CC3)nc21 (configuration not stated) + CCn1c(-c2cccnc2C(C)OC)c2c3cc(ccc31)N1CCOC(CC(NC(=O)C(C(C)C)N(C)C(=O)C3(F)CCN(C(=O)C#CC(C)(C)N(C)C)CC3)C(=O)N3CCCC(N3)C(=O)OCC(C)(C)C2)C1", "%", 24.3),
]
